- Assayed target: human adrenergic-α2B receptor (Homo sapiens, UniProt P18089)
- Construct: expressed in transfected cells; membrane preparation
- Sequence (P18089 whole entry): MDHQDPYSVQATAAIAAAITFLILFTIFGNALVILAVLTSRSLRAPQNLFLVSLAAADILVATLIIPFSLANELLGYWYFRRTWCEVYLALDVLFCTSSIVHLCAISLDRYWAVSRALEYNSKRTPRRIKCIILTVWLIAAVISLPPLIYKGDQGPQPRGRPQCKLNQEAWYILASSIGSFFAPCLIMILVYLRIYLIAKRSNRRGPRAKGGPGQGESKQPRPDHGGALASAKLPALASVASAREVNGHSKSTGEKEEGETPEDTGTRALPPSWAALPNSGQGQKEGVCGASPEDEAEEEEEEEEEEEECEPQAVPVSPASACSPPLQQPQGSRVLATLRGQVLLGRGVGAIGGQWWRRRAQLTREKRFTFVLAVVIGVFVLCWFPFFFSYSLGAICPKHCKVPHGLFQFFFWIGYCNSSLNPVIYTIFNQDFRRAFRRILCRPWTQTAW
- Procedure text: Radioligand binding experiment for α2B-adrenoceptor ([3H]-raulwolscine competition, CHO cell membranes)
- Recorded conditions: [3H]raulwolscine 1 nM, membranes of CHO cells transfected with human α2B receptor; read-out: pIC50 α2B (converted)
Observed property: IC50
Dear colleague, please send the value followed by its unit.

Query: Consider the compound shown here: "CN1CCN(c2ccc(-n3cnn(CC4CCN(CCOc5ccccc5)CC4)c3=O)cc2)CC1" What is its recorded IC50?
Reply: 7.94 nM

Query: Item: "O=c1n(-c2ccc(CN3CCCC3)cc2)cnn1CCNCCOc1ccccc1"
Reply: 79.4 nM

Query: What about this compound? "CN1CCN(CCCNc2ccc(-n3cnn(CC4CCN(CCOc5ccccc5)CC4)c3=O)cc2)CC1"
Reply: 6.31 nM

Query: Here is the next compound: "CC(=O)N1CCc2cc(-n3cnn(CCNCCOc4ccccc4)c3=O)ccc2C1"
Reply: 398 nM

Query: What do you get for "O=c1n(-c2ccc(CN3CCC(O)CC3)cc2)cnn1CCNCCOc1ccccc1" ?
Reply: 126 nM

Query: // query: "O=c1n(CCNCCOc2ccccc2)cnn1CCN1CCCCC1"
Reply: 3980 nM

Query: Same for CC(NCCOc1ccccc1)C(C)n1ncn(-c2ccc(N3CCN(c4ccc(O)cc4)CC3)cc2)c1=O (single isomer, unassigned) [compound 7]
Reply: 126 nM

Query: Now consider "O=c1n(-c2ccc3c(c2)CCN(CCN2CCCC2)C3)cnn1CCNCCOc1ccccc1" .
Reply: 251 nM

Query: Now try "O=c1n(-c2ccc(CNCc3ccc(F)cc3)cc2)cnn1CCNCCOc1ccccc1" .
Reply: 79.4 nM

Query: // repeat for "O=C(Cn1cnn(CC2CCN(CCOc3ccccc3)CC2)c1=O)Nc1ccc(F)cc1" and report
Reply: 39.8 nM

Query: Cool, now "CN(CCNc1ccc(-n2cnn(CC3CCN(CCOc4ccccc4)CC3)c2=O)cc1)CC1CCCCC1"
Reply: 7.94 nM

Query: Next up: "C/C(=C\c1ccccc1)CN1CCC(n2cnn(-c3ccc(NCCN(C)C)cc3)c2=O)CC1"
Reply: 25.1 nM

Query: # repeat for "NCc1ccc(Cn2cnn(C3CCN(CCOc4ccccc4)CC3)c2=O)cc1"
Reply: 25.1 nM

Query: Next record, please: "O=c1n(-c2ccc(N3CCN(Cc4ccccc4)CC3)cc2)cnn1CC1CCN(CCOc2ccccc2)CC1"
Reply: 31.6 nM

Query: Now the same for "NCc1ccc(-n2cnn(C3CCN(CCOc4ccccc4)CC3)c2=O)cc1"
Reply: 79.4 nM

Query: Consider next the compound "O=c1n(-c2ccc(CNCCc3ccccc3)cc2)cnn1CCNCCOc1ccccc1" in the same way.
Reply: 50.1 nM

Query: How about this compound: "COc1ccc(N2CCN(c3ccc(-n4cnn(CCNCCOc5ccccc5)c4=O)cc3)CC2)cc1"
Reply: 158 nM
